testTarget: T1, EGFRvIII extracellular domain (EGFR (1-29)-G-(298-645)-LESRGPF-Myc-NMHTG-6His) (human, UniProt P00533 298-641)
T1 construct: also called recombinant EGFRvIII; not shown: Myc tag
measurementNotes: SPR (Biacore), antibody captured via anti-human Fc, antigen injected
pKd: −log10 of the molar value.
Outcome label depends on pKd relative to 9: at/above gives Met, below gives Not met.

Some solved cases for reference:
Antibody F (AbF) (antibody, V domains shown, Full length IgG1) VH: EVQLQESGPGLVKPSQTLSLTCTVSGYSISRDFAWNWIRQPPGKGLEWMGYISYSGNTRYQPSLKSRITISRDTSKNQFFLKLNSVTAADTATYYCVTASRGFPYWGQGTLVTVSS VL: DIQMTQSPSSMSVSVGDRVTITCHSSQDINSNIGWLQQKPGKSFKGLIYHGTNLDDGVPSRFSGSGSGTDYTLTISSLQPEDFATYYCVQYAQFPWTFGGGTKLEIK; Not met
Antibody E (AbE) (antibody, V domains shown, Full length IgG1) VH: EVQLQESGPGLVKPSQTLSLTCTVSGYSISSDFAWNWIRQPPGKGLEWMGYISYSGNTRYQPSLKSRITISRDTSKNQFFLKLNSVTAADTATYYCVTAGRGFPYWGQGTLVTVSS VL: DIQMTQSPSSMSVSVGDRVTITCHSSQDINSNLGWLQQKPGKSFKGLIYHGSNLDHGVPSRFSGSGSGTDYTLTISSLQPEDFATYYCVQYDQFPWTFGGGTKLEIK; Not met

Record Antibody L (AbL) (antibody, V domains shown, Full length IgG1) VH: EVQLQESGPGLVKPSQTLSLTCTVSGYSIGKDFAWNWIRQPPGKGLEWMGYISYNGNTRYQPSLKSRITISRDTSKNQFFLKLNSVTAADTATYYCVTASRGLPYWGQGTLVTVSS VL: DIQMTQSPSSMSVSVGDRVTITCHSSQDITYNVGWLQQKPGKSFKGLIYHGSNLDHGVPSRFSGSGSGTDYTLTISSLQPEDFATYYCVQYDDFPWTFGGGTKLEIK ; criterion: pKd no lower than 9. Met?
Met

Record Antibody J (AbJ) (antibody, V domains shown, Full length IgG1) VH: EVQLQESGPGLVKPSQTLSLTCTVSGYSIGKDFAWNWIRQPPGKGLEWMGYISYSGNTRYQPSLKSRITISRDTSKNQFFLKLNSVTAADTATYYCVTASRGLPYWGQGTLVTVSS VL: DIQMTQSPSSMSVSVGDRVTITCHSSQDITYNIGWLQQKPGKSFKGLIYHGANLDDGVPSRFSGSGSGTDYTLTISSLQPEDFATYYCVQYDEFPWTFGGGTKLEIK ; criterion: pKd no lower than 9. Met?
Met
